- SYSTEM UNDER TEST: hPXR (Homo sapiens (Human), UniProt O75469)
- Sequence (O75469 whole entry): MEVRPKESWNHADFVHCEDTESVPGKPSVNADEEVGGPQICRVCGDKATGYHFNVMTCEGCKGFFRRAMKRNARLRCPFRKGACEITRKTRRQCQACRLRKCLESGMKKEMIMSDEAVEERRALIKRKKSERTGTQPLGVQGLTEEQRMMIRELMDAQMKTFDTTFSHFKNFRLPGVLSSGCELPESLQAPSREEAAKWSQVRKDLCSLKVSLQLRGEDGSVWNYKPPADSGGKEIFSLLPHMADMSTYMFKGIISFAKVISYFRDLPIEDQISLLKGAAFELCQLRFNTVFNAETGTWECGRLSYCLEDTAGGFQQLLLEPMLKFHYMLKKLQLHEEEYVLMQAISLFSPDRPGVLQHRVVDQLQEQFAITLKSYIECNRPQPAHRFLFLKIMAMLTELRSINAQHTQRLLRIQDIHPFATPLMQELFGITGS
- TEST DESCRIPTION: hPXR binding assay
- CONDITIONS USED: read-out: Binding (% inhibition at 10 μM)
Known inhibition at 10 µM of a selection of compounds
Respond numerically; units are % and should not be typed.

Examples from the recorded data:
| COMPOUND | OBSERVED |
| --- | --- |
| COc1ccc(OC)c(-n2nnc(C(=O)Nc3cc(N=C=S)cc(C(C)(C)C)c3)c2C)c1 [D11] | 47 |
| CCCOc1ccc(C(C)(C)C)cc1NC(=O)c1nnn(-c2cc(OC)ccc2OC)c1C [B5] | 79 |

Reported inhibition at 10 µM, compound COc1ccc(OC)c(-n2nnc(NS(=O)(=O)c3ccc(C(C)(C)C)cc3)c2C)c1 [K7] : ____
92

# query: inhibition at 10 µM of entry CCCC(C)Oc1ccc(C(C)(C)C)cc1NC(=O)c1nnn(-c2ccccc2OC)c1C (centres unmarked) [I2]
88

Any idea what its inhibition at 10 µM is? The compound is COc1ccc(OC)c(-n2nnc(C(=O)Nc3cc(NCC(=O)OC(C)(C)C)cc(C(C)(C)C)c3)c2C)c1 [D8]
81

Could you tell me which inhibition at 10 µM is on file for CCC[C@H](CC)Oc1ccc(C(C)(C)C)cc1NC(=O)c1nnn(-c2cc(C)c(OC)cc2OC)c1C [M11] ?
94

---

- SYSTEM UNDER TEST: hPXR (Homo sapiens (Human), UniProt O75469)
- TEST DESCRIPTION: cell-based hPXR agonistic assay
OUTCOME MEASURE: EC50

| COMPOUND | EC50 |
| --- | --- |
| COc1ccc(OC)c(-n2nnc(C(=O)Nc3cc(C(C)(C)C)ccc3O)c2C)c1 | > 30 µM |

Query (compound): COc1ccc(OC)c(-n2nnc(C(=O)Nc3ccc(N4CCN(C)CC4)cc3)c2C)c1 ; field requested: EC50
> 30 µM

For the compound shown here, COc1ccc(OC)c(-n2nnc(C(=O)Nc3cc(C)ccc3OC)c2C)c1 , give the reported EC50.
> 30 µM

---

The entries below come with measured IC50 values attached.
- SYSTEM UNDER TEST: hPXR (Homo sapiens (Human), UniProt O75469)
- TEST DESCRIPTION: cell-based hPXR inverse agonistic assay
Give just the number in nM; leave the unit off.

Past entries and their recorded results:
| MOL SMILES | SYSTEM UNDER TEST | OUTCOME MEASURE | READOUT UNIT | OBSERVED |
| --- | --- | --- | --- | --- |
| COc1ccc(OC)c(-n2nnc(C(=O)Nc3cc(C(C)(C)C)ccc3OCCCCCCCCI)c2C)c1 | hPXR (Homo sapiens (Human), UniProt O75469) | IC50 | nM | 430 |
| COc1ccc(OC)c(-n2nnc(C(=O)Nc3cc(NCC(=O)OC(C)(C)C)cc(C(C)(C)C)c3)c2C)c1 | hPXR (Homo sapiens (Human), UniProt O75469) | IC50 | nM | 120 |

Pending compound:
What measured IC50 goes with COc1ccc(Cl)cc1-n1nnc(C(=O)Nc2cc(C(C)(C)C)cc(C(C)(C)C)c2)c1C ?
66

---

- SYSTEM UNDER TEST: hPXR (Homo sapiens (Human))
- TEST DESCRIPTION: hPXR binding assay
- CONDITIONS USED: read-out: Binding (% inhibition at 10 μM)
# cutoff 80% applies to inhibition at 10 µM; >= gives fulfilled, < gives not fulfilled

Worked cases, answers included:
| COMPOUND | SYSTEM UNDER TEST | CATEGORY LABEL |
| --- | --- | --- |
| COc1ccc(OC)c(-n2nnc(C(=O)Nc3cc(C(C)(C)C)ccc3OC(C)C)c2C)c1 | hPXR (Homo sapiens (Human)) | fulfilled |
| CCC[C@H](CC)Oc1ccc(C(=O)OC)cc1NC(=O)c1nnn(-c2cc(OC)ccc2OC)c1C | hPXR (Homo sapiens (Human)) | fulfilled |

Test whether the compound CCC[C@H](CC)Oc1ccc(C(C)(C)C)cc1NC(=O)c1nnn(-c2cc(Cl)c(Cl)cc2OC)c1C records inhibition at 10 µM of 80% or higher.
fulfilled

Check the entry COc1ccc(OC)c(-n2nnc(C(=O)Nc3cccc(N4CCCCC4)c3)c2C)c1 : does inhibition at 10 µM equal or exceed 80%?
not fulfilled

Determine whether measured inhibition at 10 µM meets or exceeds 80% for CCCCOc1ccc(C(C)(C)C)cc1NC(=O)c1nnn(-c2cc(OC)ccc2OC)c1C
fulfilled

Answer whether inhibition at 10 µM of COc1ccc(OC)c(-n2nnc(C(=O)Nc3cc(C(C)(C)C)ccc3O)c2C)c1 is greater than or equal to 80%.
fulfilled

API: above_or_equal(metric=inhibition at 10 µM, cutoff=80%) for item COc1cc(NC(=O)c2nnn(-c3cc(Cl)ccc3OC)c2C)cc(C(C)(C)C)c1
not fulfilled

Could you please find out whether CCC(CC)Oc1ccc(C(C)(C)C)cc1NC(=O)c1nnn(-c2cc(OC)ccc2OC)c1C has inhibition at 10 µM that meets 80% or exceeds it?
fulfilled

Quick check, inhibition at 10 µM >= 80%? CCCCNc1cc(NC(=O)c2nnn(-c3cc(Cl)ccc3OC)c2C)cc(C(C)(C)C)c1
fulfilled

---

Entries and their log10 IC50
- SYSTEM UNDER TEST: hPXR (Homo sapiens (Human), UniProt O75469)
- TEST DESCRIPTION: cell-based hPXR inverse agonistic assay
- CONDITIONS USED: read-out: Inverse agonist (IC50/μM); cell-based hPXR inverse agonistic assay
Parameter value (number): base-10 log of IC50 in µM.

Which measured log10 IC50 value corresponds to CCCCOc1ccc(NC(=O)c2nnn(-c3cc(OC)ccc3OC)c2C)cc1C(C)(C)C ?
0.51

Fill in the blank: the reported log10 IC50 of CCCCNc1cc(NC(=O)c2nnn(-c3cc(OC)ccc3OC)c2C)cc(C(C)(C)C)c1 is ____.
-1.41

Which log10 IC50 value belongs to CCCOc1ccc(C(C)(C)C)cc1NC(=O)c1nnn(-c2cc(OC)ccc2OC)c1C ?
-1.26

---

- SYSTEM UNDER TEST: UniProtKB O75469
- TEST DESCRIPTION: cell-based hPXR inverse agonistic assay
OUTCOME MEASURE: pIC50
In textbook form, pIC50 equals minus log to base ten of the concentration in mol/L.

As a guide, the following entries are already answered.
| MOL SMILES | pIC50 |
| --- | --- |
| COc1ccc(OC)c(-n2nnc(C(=O)Nc3cc(OC(=O)c4nnn(-c5cc(OC)ccc5OC)c4C)cc(C(C)(C)C)c3)c2C)c1 | 6.82 |
| CCC[C@H](CC)Oc1ccc(C(C)(C)C)cc1NC(=O)c1nnn(-c2cc(Cl)c(Cl)cc2OC)c1C | 7.19 |
| C#CCCCOc1cc(NC(=O)c2nnn(-c3cc(OC)ccc3OC)c2C)cc(C(C)(C)C)c1 | 7.49 |

Query pIC50 on UniProtKB O75469 for COc1ccc(OC)c(-n2nnc(C(=O)Nc3cc(C(C)(C)C)ccc3OCCN3CCOCC3)c2C)c1
5.87

Form field - read-out: pIC50; system: UniProtKB O75469; submitted item: COc1ccc(OC)c(-n2nnc(C(=O)Nc3cc(N=C=S)cc(C(C)(C)C)c3)c2C)c1
5.59

Hi! What's the reported pIC50 for COc1ccc(OC)c(-n2nnc(C(=O)Nc3cc(OCCCC(=O)O)cc(C(C)(C)C)c3)c2C)c1 on UniProtKB O75469?
6.72

What value of pIC50 on UniProtKB O75469 does COc1ccc(OC)c(-n2nnc(C(=O)Nc3cc(N4C(=O)CCC4=O)cc(C(C)(C)C)c3)c2C)c1 have?
7.60

Request - read-out pIC50 | tested on UniProtKB O75469 | molecule CCC[C@H](CC)Oc1ccc(C(=O)OC)cc1NC(=O)c1nnn(-c2cc(OC)ccc2OC)c1C
9.00

Report pIC50 for COc1ccc(OC)c(-n2nnc(C(=O)Nc3cc(C)ccc3OC)c2C)c1 tested on UniProtKB O75469.
4.69

---

List of inhibition at 10 µM values.
- SYSTEM UNDER TEST: UniProtKB O75469
- TEST DESCRIPTION: cell-based hPXR antagonistic assay
- CONDITIONS USED: read-out: Antagonist (% inhibition at 10 μM)
# output: bare number, implied unit %

| COMPOUND | inhibition at 10 µM [%] |
| --- | --- |
| CCC(C)Oc1ccc(C(C)(C)C)cc1NC(=O)c1nnn(-c2cc(Cl)ccc2OC)c1C (centres unmarked) | 79 |
| COc1ccc(OC)c(-n2nnc(C(=O)Nc3cc(OCCCN4CCN(C)CC4)cc(C(C)(C)C)c3)c2C)c1 | 105 |
| COc1ccc(OC)c(-n2nnc(C(=O)Nc3cc(OCCOCCOCCOCCN)cc(C(C)(C)C)c3)c2C)c1 | 84 |
| COc1ccc(OC)c(-n2nnc(C(=O)Nc3cc(N=C=S)cc(C(C)(C)C)c3)c2C)c1 | 26 |
| CCC(C)Oc1ccc(C(C)(C)C)cc1NC(=O)c1nnn(-c2cc(C)ccc2OC)c1C (centres unmarked) | 73 |
| COc1ccc(C)cc1-n1nnc(C(=O)Nc2cc(O)cc(C(C)(C)C)c2)c1C | 103 |
| CCCCNc1cc(NC(=O)c2nnn(-c3cc(C)ccc3OC)c2C)cc(C(C)(C)C)c1 | 104 |
| CCCCCCCCOc1cc(NC(=O)c2nnn(-c3cc(OC)ccc3OC)c2C)cc(C(C)(C)C)c1 | 35 |
| CCC[C@H](CC)Oc1ccc(C(=O)Nc2ccc(N3CCN(C(C)=O)CC3)cc2)cc1NC(=O)c1nnn(-c2cc(OC)ccc2OC)c1C | 97 |
| CCC[C@H](CC)Oc1ccccc1NC(=O)c1nnn(-c2cc(OC)ccc2OC)c1C | 107 |

Could you share what inhibition at 10 µM was measured for CCC[C@@H](CC)Oc1ccc(C(C)(C)C)cc1NC(=O)c1nnn(-c2cc(OC)ccc2OC)c1C , tested on UniProtKB O75469?
103

Lab note: need inhibition at 10 µM with UniProtKB O75469 for entry COc1cc(NC(=O)c2nnn(-c3cc(C)ccc3OC)c2C)cc(C(C)(C)C)c1 , please look it up.
109

For the record COc1cc(NC(=O)c2nnn(-c3cc(Cl)ccc3OC)c2C)cc(C(C)(C)C)c1 , what value of inhibition at 10 µM is listed for UniProtKB O75469?
103

Provide the documented inhibition at 10 µM with UniProtKB O75469 as the system for COc1ccc(OC)c(-n2nnc(C(=O)Nc3cc(C(C)(C)C)ccc3OC(C)C)c2C)c1
107

So what inhibition at 10 µM did COc1ccc(C)cc1-n1nnc(C(=O)Nc2cc(C(C)(C)C)cc(C(C)(C)C)c2)c1C get with UniProtKB O75469?
104

I'm curious: which inhibition at 10 µM was measured for COc1ccc(OC)c(-n2nnc(C(=O)Nc3cc(OCCOCCOCCOCCNC(=O)CCCC[C@@H]4SC[C@@H]5NC(=O)N[C@@H]54)cc(C(C)(C)C)c3)c2C)c1 tested on UniProtKB O75469?
40

Identify the measured inhibition at 10 µM of COc1ccc(OC)c(-n2nnc(C(=O)Nc3cc(C(C)(C)C)ccc3OCC(C)(C)C)c2C)c1 for UniProtKB O75469.
99
